# SYSTEM NAME: T1, human MSLN-R3 on HEK293T-hMSLN-R3 recombinant cells (human, UniProt Q13421 487-606)
# T1 construct: the C-terminal limit is uncertain; also called human MSLN-R3 membrane protein
# T1 sequence (Q13421 495-614): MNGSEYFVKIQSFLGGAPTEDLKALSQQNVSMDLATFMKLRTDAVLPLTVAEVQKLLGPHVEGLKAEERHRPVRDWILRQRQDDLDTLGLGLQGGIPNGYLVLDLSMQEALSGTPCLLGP
# MEASUREMENT NOTES: FACS, HEK293T-hMSLN-R3 cells
Maximum_MFI by entry:
Number only, in MFI; omit the unit.

{"columns": ["BINDER", "UNITS SYMBOL", "Maximum_MFI"],
 "data": [
  ["F7.33.24-H3 (scFv, not shown: small tags and cut ends, also called S009-F7.33.24 humanized antibody VH1 + VL3) scFv: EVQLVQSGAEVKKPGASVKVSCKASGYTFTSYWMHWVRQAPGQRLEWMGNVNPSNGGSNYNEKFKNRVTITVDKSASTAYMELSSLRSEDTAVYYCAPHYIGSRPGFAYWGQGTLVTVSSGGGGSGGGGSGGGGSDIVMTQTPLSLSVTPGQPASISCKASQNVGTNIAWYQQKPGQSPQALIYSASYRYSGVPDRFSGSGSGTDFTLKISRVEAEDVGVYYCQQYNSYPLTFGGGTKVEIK", "MFI", 1970],
  ["F7.33.24-H9 (scFv, not shown: small tags and cut ends, also called S009-F7.33.24 humanized antibody VH2 + VL3) scFv: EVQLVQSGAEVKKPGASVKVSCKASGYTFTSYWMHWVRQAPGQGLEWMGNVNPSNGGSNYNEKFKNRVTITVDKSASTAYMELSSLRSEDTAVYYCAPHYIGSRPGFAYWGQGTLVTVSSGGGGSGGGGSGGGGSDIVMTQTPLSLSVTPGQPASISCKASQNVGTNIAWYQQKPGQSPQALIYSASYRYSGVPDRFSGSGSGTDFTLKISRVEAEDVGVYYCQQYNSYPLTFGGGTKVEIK", "MFI", 1470],
  ["F7.33.24-H6 (scFv, not shown: small tags and cut ends, also called S009-F7.33.24 humanized antibody VH1a + VL3) scFv: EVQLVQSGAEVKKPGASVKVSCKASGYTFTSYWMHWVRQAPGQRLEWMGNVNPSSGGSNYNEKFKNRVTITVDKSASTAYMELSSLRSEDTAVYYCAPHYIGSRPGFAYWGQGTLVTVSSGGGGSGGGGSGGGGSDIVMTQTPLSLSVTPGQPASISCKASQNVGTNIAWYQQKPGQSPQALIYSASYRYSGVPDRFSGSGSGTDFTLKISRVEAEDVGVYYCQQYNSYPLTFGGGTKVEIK", "MFI", 1540],
  ["Tab111 (scFv, not shown: small tags and cut ends, also called YP218 VL-(G4S)3-VH-his antibody; positive control) scFv: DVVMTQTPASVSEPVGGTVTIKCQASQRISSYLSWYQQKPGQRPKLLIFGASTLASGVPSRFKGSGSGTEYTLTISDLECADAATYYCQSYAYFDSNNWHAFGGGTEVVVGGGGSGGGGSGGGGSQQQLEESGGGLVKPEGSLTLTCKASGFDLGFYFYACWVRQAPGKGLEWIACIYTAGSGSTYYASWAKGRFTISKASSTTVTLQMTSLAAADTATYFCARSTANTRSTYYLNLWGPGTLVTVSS", "MFI", 2120]
]}

Query: I have this binder here, F7.33.24-H2 (scFv, not shown: small tags and cut ends, also called S009-F7.33.24 humanized antibody VH1 + VL2) scFv: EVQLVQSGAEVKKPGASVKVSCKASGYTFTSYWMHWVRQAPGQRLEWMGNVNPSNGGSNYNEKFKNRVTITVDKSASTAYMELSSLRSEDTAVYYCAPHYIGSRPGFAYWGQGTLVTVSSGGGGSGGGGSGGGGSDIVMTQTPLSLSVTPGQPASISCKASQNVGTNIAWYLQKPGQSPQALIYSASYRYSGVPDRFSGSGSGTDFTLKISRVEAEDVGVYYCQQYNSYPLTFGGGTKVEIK , and I need its recorded Maximum_MFI.
Result: 1520

Query: I have this binder here, Tab110 (scFv, not shown: small tags and cut ends, also called YP218 VH-(G4S)3-VL-his antibody; positive control) scFv: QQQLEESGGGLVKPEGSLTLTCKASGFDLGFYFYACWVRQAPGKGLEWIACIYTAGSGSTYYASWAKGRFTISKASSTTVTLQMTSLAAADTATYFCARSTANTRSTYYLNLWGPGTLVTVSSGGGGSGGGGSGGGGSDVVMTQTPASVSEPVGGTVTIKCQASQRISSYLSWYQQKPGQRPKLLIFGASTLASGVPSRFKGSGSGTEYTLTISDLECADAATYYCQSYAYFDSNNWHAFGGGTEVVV , and I need its recorded Maximum_MFI.
Result: 461
